For each of the sequences below, state its Kd.
# Tested on: S. pombe Translin (Schizosaccharomyces pombe)
# Test Details: EMSA
Numbers only, in nM.

>>> df
                            residue_string  val
0  GUGUGUGUGUGUGUGUGUGUGUGUGUGUGU [(GU)15]    3

From here, focus on the item given below.
# get_value(readout='Kd', item= GTGTGTGTGTGTGTGTGTGTGTGTGTGTGT [d(GT)15] )
18
